- Target Desc: HIV-1 RT (Human immunodeficiency virus type 1 group M subtype B, UniProt P03366)
- Assay Explanation: Direct binding assay using surface plasmon resonance
- Conditions: KD^SPR, Enzyme, no metal (MgCl2 omitted, EDTA added)

Compound	Target Desc	Kd
CC(C)c1ccc(O)c(=O)c(O)c1 [β-thujaplicinol]	HIV-1 RT (Human immunodeficiency virus type 1 group M subtype B, UniProt P03366)	> 100 µM

###

- Target Desc: HIV-1 RT (Human immunodeficiency virus type 1 group M subtype B)
pIC50: −log10 of the molar value.

Substance Smiles	pIC50
CC(C)c1ccc(O)c(=O)c(O)c1	< 4.00

###

- Target Desc: HIV-1 RT (Human immunodeficiency virus type 1 group M subtype B, UniProt P03366)
- Assay Explanation: Direct binding assay using intrinsic protein fluorescence
- Conditions: KD^fluor, Enzyme + MgCl2 + ds RNA (non-hydrolyzable substrate analog)
pKd: −log10 of the molar value.
Readout Type: pKd

Substance Smiles	Result Number
CC(C)c1ccc(O)c(=O)c(O)c1	6.73

Each recorded value in this set is attributed to paper PMC3365588.
